The entries below are paired with their reported Kd.
biological target: feline FcRn complex (FcRn-α subunit and β-microglobulin) (feline); assay: SPR (Biacore), FcRn on SA chip, pH 7.4
Give just the numeric value; nM need not be written.

Use these answered entries as a reference point.
feline IgG1a mutant ID No. 371: S252Y, S434R, Q311K (antibody, part only; not given: Variable domains, not shown: another chain or arm of the molecule) constant: ASTTAPSVFPLAPSCGTTSGATVALACLVLGYFPEPVTVSWNSGALTSGVHTFPAVLQASGLYSLSSMVTVPSSRWLSDTFTCNVAHPPSNTKVDKTVRKTDHPPGPKPCDCPKCPPPEMLGGPSIFIFPPKPKDTLYISRTPEVTCLVVDLGPDDSDVQITWFVDNTQVYTAKTSPREEQFNSTYRVVSVLPILHKDWLKGKEFKCKVNSKSLPSPIERTISKAKGQPHEPQVYVLPPAQEELSRNKVSVTCLIKSFHPPDIAVEWEITGQPEPENNYRTTPPQLDSDGTYFVYSKLSVDRSHWQRGNTYTCSVSHEALHRHHTQKSLTQSPGK	10.7
feline IgG1a mutant ID No. 324: S428Y, D312P, S434Y, D399M, T403R (antibody, part only; not given: Variable domains, not shown: another chain or arm of the molecule) constant: ASTTAPSVFPLAPSCGTTSGATVALACLVLGYFPEPVTVSWNSGALTSGVHTFPAVLQASGLYSLSSMVTVPSSRWLSDTFTCNVAHPPSNTKVDKTVRKTDHPPGPKPCDCPKCPPPEMLGGPSIFIFPPKPKDTLSISRTPEVTCLVVDLGPDDSDVQITWFVDNTQVYTAKTSPREEQFNSTYRVVSVLPILHQPWLKGKEFKCKVNSKSLPSPIERTISKAKGQPHEPQVYVLPPAQEELSRNKVSVTCLIKSFHPPDIAVEWEITGQPEPENNYRTTPPQLMSDGRYFVYSKLSVDRSHWQRGNTYTCSVYHEALHYHHTQKSLTQSPGK	21.6
feline IgG1a mutant ID No. 333: S428Y, D312P, S434Y, Q311Y, L314K (antibody, part only; not given: Variable domains, not shown: another chain or arm of the molecule; small tags and cut ends) constant: ASTTAPSVFPLAPSCGTTSGATVALACLVLGYFPEPVTVSWNSGALTSGVHTFPAVLQASGLYSLSSMVTVPSSRWLSDTFTCNVAHPPSNTKVDKTVRKTDHPPGPKPCDCPKCPPPEMLGGPSIFIFPPKPKDTLSISRTPEVTCLVVDLGPDDSDVQITWFVDNTQVYTAKTSPREEQFNSTYRVVSVLPILHYPWKKGKEFKCKVNSKSLPSPIERTISKAKGQPHEPQVYVLPPAQEELSRNKVSVTCLIKSFHPPDIAVEWEITGQPEPENNYRTTPPQLDSDGTYFVYSKLSVDRSHWQRGNTYTCSVYHEALHYHHTQKSLTQSPGK	25.9

INPUT: Suppose we examine the binder feline IgG1a mutant ID No. 350: S252Y, S428M, S434F, Q311M (antibody, part only; not given: Variable domains, not shown: another chain or arm of the molecule) constant: ASTTAPSVFPLAPSCGTTSGATVALACLVLGYFPEPVTVSWNSGALTSGVHTFPAVLQASGLYSLSSMVTVPSSRWLSDTFTCNVAHPPSNTKVDKTVRKTDHPPGPKPCDCPKCPPPEMLGGPSIFIFPPKPKDTLYISRTPEVTCLVVDLGPDDSDVQITWFVDNTQVYTAKTSPREEQFNSTYRVVSVLPILHMDWLKGKEFKCKVNSKSLPSPIERTISKAKGQPHEPQVYVLPPAQEELSRNKVSVTCLIKSFHPPDIAVEWEITGQPEPENNYRTTPPQLDSDGTYFVYSKLSVDRSHWQRGNTYTCSVMHEALHFHHTQKSLTQSPGK ; what Kd value has been reported?
OUTPUT: 4.89

INPUT: Suppose we examine the binder feline IgG1a mutant ID No. 339: S252Y, S428M, S434F, P247L (antibody, part only; not given: Variable domains, not shown: another chain or arm of the molecule) constant: ASTTAPSVFPLAPSCGTTSGATVALACLVLGYFPEPVTVSWNSGALTSGVHTFPAVLQASGLYSLSSMVTVPSSRWLSDTFTCNVAHPPSNTKVDKTVRKTDHPPGPKPCDCPKCPPPEMLGGPSIFIFPPKLKDTLYISRTPEVTCLVVDLGPDDSDVQITWFVDNTQVYTAKTSPREEQFNSTYRVVSVLPILHQDWLKGKEFKCKVNSKSLPSPIERTISKAKGQPHEPQVYVLPPAQEELSRNKVSVTCLIKSFHPPDIAVEWEITGQPEPENNYRTTPPQLDSDGTYFVYSKLSVDRSHWQRGNTYTCSVMHEALHFHHTQKSLTQSPGK ; what Kd value has been reported?
OUTPUT: 6.73
